# MEASUREMENT_DESCRIPTION: Confirmatory qHTS for inhibitors of SARS-S pseudo-typed particle cell entry
# MEASUREMENT_SETUP: SARS-S pseudotyped particle cell entry, reporter luminescence; series mostly up to 57.1 µM
Inconclusive results are not listed. Calls of active or inactive are those of the source. The call rests on the fitted dose curve.
TEST_READOUT: Potency

Worked examples, 3 molecules total:
[[record]]
molecule = "Oc1c(Cl)cc(Cl)c(Cl)c1Cc1c(O)c(Cl)cc(Cl)c1Cl"
result = "1.21 µM (active)"

[[record]]
molecule = "CC(C)C[C@H](NC(=O)[C@H](CCc1ccccc1)NC(=O)CN1CCOCC1)C(=O)N[C@@H](Cc1ccccc1)C(=O)N[C@@H](CC(C)C)C(=O)[C@@]1(C)CO1"
result = "0.681 µM (active)"

[[record]]
molecule = "CN1CCN(CCC=C2c3ccccc3Sc3ccc(S(=O)(=O)N(C)C)cc32)CC1"
result = "6.07 µM (active)"


GET /value?item= CC(=O)[C@]1(O)Cc2c(O)c3c(c(O)c2[C@@H](O[C@H]2C[C@H](N)[C@H](O)[C@H](C)O2)C1)C(=O)c1ccccc1C3=O &field=Potency returns 6.07 µM (active)

GET /value?item= c1ccc2c(c1)Sc1ccccc1N2CC1CN2CCC1CC2 (stereo not given) &field=Potency returns 27.1 µM (active)

====

# MEASUREMENT_DESCRIPTION: Confirmatory qHTS for inhibitors of SARS-S pseudo-typed particle cell entry
# MEASUREMENT_SETUP: SARS-S pseudotyped particle cell entry, reporter luminescence; series mostly up to 57.1 µM
Records with an inconclusive call do not appear. Active and inactive are the calls of the source. Calls come from the whole dose curve.
Pick from active, inactive when you respond.

[[record]]
compound = "C[n+]1c2cc(N)ccc2cc2ccc(N)cc21 (tested in a mixture with another compound)"
label_class = "active"


Recorded test outcome, item CCC(C)(C)C(=O)O[C@H]1C[C@@H](C)C=C2C=C[C@H](C)[C@H](CC[C@@H]3C[C@@H](O)CC(=O)O3)[C@H]21 active

Recorded test outcome, item CN(C)CC/C=C1\c2ccccc2Sc2ccc(Cl)cc21 active

Recorded test outcome, item CC(C)(C)NC(=O)[C@H]1CC[C@H]2[C@@H]3CC[C@H]4NC(=O)C=C[C@]4(C)[C@H]3CC[C@]12C inactive

Recorded test outcome, item CC(C)OC(=O)OCOP(=O)(CO[C@H](C)Cn1cnc2c(N)ncnc21)OCOC(=O)OC(C)C active

Recorded test outcome, item Cc1oncc1C(=O)Nc1ccc(C(F)(F)F)cc1 inactive

Recorded test outcome, item CC(C)(C)NCC(O)COc1ccccc1C1CCCC1 (stereo not given) active

Recorded test outcome, item COc1cc(NS(C)(=O)=O)ccc1Nc1c2ccccc2nc2ccccc12 active

Recorded test outcome, item COc1cc(N)c(Cl)cc1C(=O)NC1CCN(CCCOc2ccc(F)cc2)CC1OC (stereo not given) inactive

Recorded test outcome, item Cc1ccc(NC(=O)c2ccc(CN3CCN(C)CC3)cc2)cc1Nc1nccc(-c2cccnc2)n1 active

Recorded test outcome, item CNC(=O)c1cc(Oc2ccc(NC(=O)Nc3ccc(Cl)c(C(F)(F)F)c3)c(F)c2)ccn1 active

Recorded test outcome, item N#CC(c1ccc(Cl)cc1)c1c(Cl)cc(-n2ncc(=O)[nH]c2=O)cc1Cl (stereo not given) active

Recorded test outcome, item CN1CCC(=C2c3ccccc3C=Cc3ccccc32)CC1 active

Recorded test outcome, item O=C1c2c(O)ccc(O)c2C(=O)c2c(NCCNCCO)ccc(NCCNCCO)c21 active

Recorded test outcome, item CO[C@@]12[C@H](COC(N)=O)C3=C(C(=O)C(C)=C(N)C3=O)N1C[C@@H]1N[C@@H]12 active
